biological target: HLA-B*18:01; assay: IEDB peptide-MHC binding, purified MHC/direct/fluorescence; filed as Kd, often an IC50 or EC50 that approximates it; bounds were set here for any values at or beyond the usual limits of such assays; settings: source organism: Marburg virus - Musoke, Kenya, 1980
pKd: −log10 of the molar value.
Measured pKd by item

Examples from the recorded data:
>>> reported_result("LYKTIVNIW")
"≤ 4.70"
>>> reported_result("TVLEFILQK")
"≤ 4.70"
>>> reported_result("IISTNTLGK")
"≤ 4.70"

Then there is this sequence:
GET /values?readout=pKd&item= VPAWLPLGI 5.24

* * *

biological target: HLA-A*32:01; assay: IEDB peptide-MHC binding, purified MHC/competitive/radioactivity; filed as Kd, often an IC50 or EC50 that approximates it; bounds were set here for any values at or beyond the usual limits of such assays; conditions: source organism: Dengue virus 4 Philippines/H241/1956
measure-name: Kd (nM)
Reply with just the number (in nM).

Examples from the recorded data:
>>> reported_result("MTLWYMWQVK")
927
>>> reported_result("ALNELPESL")
1400
>>> reported_result("LLMRTTWAF")
1.69
>>> reported_result("EDMLKVWNRV")
19600

Then there is this sequence:
GET /values?readout=Kd&item= IDNVHTWTEQ 9850

* * *

target: HLA-B*46:01; assay: IEDB peptide-MHC binding, purified MHC/direct/fluorescence; filed as Kd, often an IC50 or EC50 that approximates it; bounds were set here for any values at or beyond the usual limits of such assays; settings: source organism: Vibrio cholerae
pKd: −log10 of the molar value.
measure-name: pKd

GET /values?readout=pKd&item= VVYKEAKIK ≤ 4.70

* * *

biological target: HLA-B*83:01; assay: IEDB peptide-MHC binding, purified MHC/competitive/fluorescence; filed as Kd, often an IC50 or EC50 that approximates it; bounds were set here for any values at or beyond the usual limits of such assays; conditions: source organism: Burkholderia mallei SAVP1
measure-name: Kd

GET /values?readout=Kd&item= YARRYFYPL ≥ 5 µM

* * *

biological target: HLA-A*66:01; assay: IEDB peptide-MHC binding, purified MHC/competitive/fluorescence; filed as Kd, often an IC50 or EC50 that approximates it; bounds were set here for any values at or beyond the usual limits of such assays; conditions: source organism: Rickettsia bellii OSU 85-389
pKd: −log10 of the molar value.
measure-name: pKd

GET /values?readout=pKd&item= EDFEIFYNL ≤ 5.30

* * *

molecular target: HLA-B*08:01; test: IEDB peptide-MHC binding, purified MHC/direct/fluorescence; filed as Kd, often an IC50 or EC50 that approximates it; bounds were set here for any values at or beyond the usual limits of such assays; conditions: source organism: Orthohantavirus dobravaense
measure-name: Kd (µM)
Reply with just the number (in µM).

GET /values?readout=Kd&item= YSKVKLLGL 0.0525

* * *

target: HLA-A*02:01; assay: IEDB peptide-MHC binding, purified MHC/competitive/fluorescence; bounds were set here for any values at or beyond the usual limits of such assays; conditions: source organism: Hepatitis C virus genotype 1
measure-name: IC50 (µM)
Reply with just the number (in µM).

GET /values?readout=IC50&item= SVIDCNTCV 5

* * *

molecular target: HLA-A*26:01; experiment: IEDB peptide-MHC binding, purified MHC/direct/fluorescence; filed as Kd, often an IC50 or EC50 that approximates it; bounds were set here for any values at or beyond the usual limits of such assays; details: source organism: Variola virus
measure-name: Kd

GET /values?readout=Kd&item= YHRFGLYRL ≥ 20 µM
